Values compiled from the RNAGym collection of RNA variant scans (doi:10.1073/pnas.2313332121).

Consider the following variants and their measured polymerase ribozyme fitness (log ratio) readings.
B1: TPR t1 (parent)
chain: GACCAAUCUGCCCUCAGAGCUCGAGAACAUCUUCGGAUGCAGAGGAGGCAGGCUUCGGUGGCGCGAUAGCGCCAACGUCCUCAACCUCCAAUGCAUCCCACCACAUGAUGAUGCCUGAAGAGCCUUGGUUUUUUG

Variants of: B1
Assay: polymerase ribozyme fitness, log enrichment relative to wild type (log ratio); higher = more active; in vitro selection for triplet polymerase activity

VARIANT_DESIGNATION: U78A G107C
polymerase ribozyme fitness (log ratio): -6.06
//
VARIANT_DESIGNATION: G42U C49A G77A C123G G135U
polymerase ribozyme fitness (log ratio): -1.82
//
VARIANT_DESIGNATION: G35A G58C
polymerase ribozyme fitness (log ratio): -3.4
//
VARIANT_DESIGNATION: C11U C76A
polymerase ribozyme fitness (log ratio): -0.763
//
VARIANT_DESIGNATION: A50C C56G A121U
polymerase ribozyme fitness (log ratio): 1.61
//
VARIANT_DESIGNATION: G19A C104U
polymerase ribozyme fitness (log ratio): -2.85
//
VARIANT_DESIGNATION: U96G U106C
polymerase ribozyme fitness (log ratio): -1.3
//
VARIANT_DESIGNATION: C12U G65U
polymerase ribozyme fitness (log ratio): -4.93
//
VARIANT_DESIGNATION: C82G G128A
polymerase ribozyme fitness (log ratio): -2.22
//
VARIANT_DESIGNATION: C4U A27C U54C C82A
polymerase ribozyme fitness (log ratio): -3.17
//
VARIANT_DESIGNATION: A50G C53U G61C A90G G113A
polymerase ribozyme fitness (log ratio): -1.82
//
VARIANT_DESIGNATION: U33G C104U C123G
polymerase ribozyme fitness (log ratio): -4.29
//
VARIANT_DESIGNATION: A16G C22U G45U C64G C86G A121C
polymerase ribozyme fitness (log ratio): -7.27
//
VARIANT_DESIGNATION: G42C G52A G60U C101U C104A
polymerase ribozyme fitness (log ratio): -5.59
//
VARIANT_DESIGNATION: U14A A41C
polymerase ribozyme fitness (log ratio): -4.27
//
VARIANT_DESIGNATION: G57A A75U U96C U131C
polymerase ribozyme fitness (log ratio): -1.53
//
VARIANT_DESIGNATION: C8G C11A G51A G71U U106G G113U U125G
polymerase ribozyme fitness (log ratio): -6.93
//
VARIANT_DESIGNATION: C28U C53A G93U
polymerase ribozyme fitness (log ratio): -4.15
//
VARIANT_DESIGNATION: G58U G61C A90G
polymerase ribozyme fitness (log ratio): 0.258
